Exercise: state measured melting point for each of the compounds provided.

{"COMPOUND": "COC1CN(c2ccc(N3C[C@H](CO)OC3=O)cc2F)C1", "RESULT VALUE": "131 to 132 °C"}

I have 4 compounds here; please give me melting point for each one.
1. CSC1C(=O)CC2C3CCC4=CC(=O)C=CC4(C)C3(F)C(OC(C)=O)CC12C (stereo not given)
2. O=C(CNC(=O)c1nc2cccc(OC(F)(F)F)c2cc1OCc1ccccc1)OCc1ccccc1
3. COc1ccc(-n2ncc(-c3ccc(C=Cc4ccc(-c5nc6ccccc6o5)cc4)cc3)n2)cc1
4. O=Cc1nn2c3c(cccc13)CCC2

stdout:
235 to 237 °C
123 to 124 °C
255 °C
119 to 120 °C

I have 5 compounds here; please give me melting point for each one.
1. N#Cc1c(NC(=O)C2CCCCC2)sc(-c2ccccc2)c1C#N
2. CN(C)c1ccc2c(c1)C(=O)CC(c1ccc(OCc3ccccc3)cc1)=N2
3. CCCNC(=O)C(C#N)=NNc1ccccc1-c1ccccc1
4. CC(O)c1cc(I)cc(S(N)(=O)=O)c1 (stereo not given)
5. Cc1c(Nc2c(C#N)cnc3scc(CO)c23)ccc2[nH]ccc12

stdout:
1: 208 to 212 °C; 2: 283 to 285 °C; 3: 180 to 184 °C; 4: 184 to 187 °C; 5: 230 °C

---

Exercise: state measured melting point for each of the compounds provided.

I have 6 compounds here; please give me melting point for each one.
1. O=C(Nc1ccc(O)cc1)C(=O)N1CCC(Cc2ccccc2)CC1
2. N#Cc1ccc(OCc2ccc3ncoc3c2)cc1OC(C(=O)O)c1ccccc1Cl (racemic)
3. O=c1c2c(CCCc3ccccc3)n[nH]c2c2cccnc2n1-c1ccccc1
4. Cc1cc(NC2CN(C(=O)OCc3ccccc3)CC2O)c2cc(C)c(-c3ccc(Cl)cc3Cl)n2n1 (stereo not drawn)
5. CC1CC(=Cc2ccccc2OCC(O)CN2CCC(c3ccc4ccccc4c3)CC2)C(=O)O1 (stereo not drawn)
6. CCN(CC)CC(O)CNC(=O)c1c(OCc2ccccc2)c2ccccc2n1-c1ccccc1 (stereo not drawn)

stdout:
167 to 169 °C
172 to 178 °C
202 to 204 °C
105 to 110 °C
142 to 144 °C
80 to 81 °C

I have 2 compounds here; please give me melting point for each one.
1. O=C(O)CCc1cc2nc(C(F)(F)F)ccc2n1S(=O)(=O)c1cccc2cccnc12
2. O=C(OCc1ccccc1)c1ccc2cc(-c3ccc(C(O)CO)c(C45CC6CC(CC(C6)C4)C5)c3)ccc2c1 (stereo not drawn)

stdout:
["216 to 217 °C", "193 °C"]

---

Exercise: state measured melting point for each of the compounds provided.

{"COMPOUND": "O=C(NCc1ccccn1)Nc1cc(N2CC(c3ccccc3)OC2=O)ccn1 (stereo unspecified)", "melting point": "190 to 191 °C"}
{"COMPOUND": "CC(=O)Nc1cc2c(cc1Oc1ccc(F)cc1F)CCC2=O", "melting point": "210 °C"}
{"COMPOUND": "COC(=O)C(C)(C)c1ccc(C(=O)Nc2cn3cc(-c4cn[nH]c4)ccc3n2)cc1", "melting point": "248 to 249 °C"}
{"COMPOUND": "CCCCCCc1ccc2c(c1)[nH]c1cc(COC(c3ccccc3)(c3ccccc3)c3ccccc3)ccc12", "melting point": "155 to 156 °C"}
{"COMPOUND": "Ic1ccc(-c2cccnc2)cc1", "melting point": "112 to 115 °C"}
{"COMPOUND": "CCOC(=O)CN1C(=O)C(=Cc2ccccc2)SC1=S", "melting point": "122 to 125 °C"}

I have 7 compounds here; please give me melting point for each one.
1. COc1ccc(C)cc1NC(=O)Nc1ccc(N2CCN(C(=O)Nc3ccc(N)cc3C(F)(F)F)CC2)cc1
2. O=C(O)C(=O)N1CCC(Oc2ccc(Cl)cc2)CC1
3. Cc1c(NC(=O)c2ccc(OCC3CCOC3)cc2)ccc2cc(CNC3CCCC3)cnc12 (stereo unspecified)
4. COc1cc(CO)ccc1OCc1nc(N2CCOCC2)sc1C
5. CCNC(=O)c1ccc(N2CCN(Cc3cnc4c(c3)NC(=O)[C@@H]3CSCCN43)CC2)cc1
6. CC(C)(C)c1cc(C(=O)NCc2cccc([N+](=O)[O-])c2)cc(C(C)(C)C)c1O
7. COc1cc(NC(=O)OC(C)(C)C)c([N+](=O)[O-])cc1I

stdout:
244 to 246 °C
144 to 145 °C
148 to 149 °C
121 to 122 °C
289 °C
210 to 211 °C
171 °C

I have 7 compounds here; please give me melting point for each one.
1. COc1cccc(N2CCC(NC(C)=O)CC2)n1
2. Cc1oc(-c2cccs2)nc1CCOc1ccc(N)cn1
3. CCOC(=O)CSc1ncnc2c(O)n(C(C)(C)C)nc12
4. CNC(=NC#N)NCCS(=O)Cc1nsc(NC(=N)N)n1 (stereo unspecified)
5. CC(C)C(=O)N1CCN(c2ccc(NC(=O)c3ccccn3)cc2Cl)CC1
6. CCOC(=O)CN(Cc1cc(F)ccc1[N+](=O)[O-])C(=O)C(F)(F)F
7. CN(C)CCCN(C)C(=O)Nc1ccc(-c2nnc(CSCCOc3ccccc3)o2)cc1

stdout:
1. 125 to 127 °C
2. 120 to 122 °C
3. 129 to 131 °C
4. 185 to 186 °C
5. 156 to 158 °C
6. 60 to 63 °C
7. 136 to 139 °C

stdin: GET /values?readout=melting point&item= CCCCn1c(=O)c2[nH]c(Cl)nc2n(CCCC)c1=O
stdout: 152 °C

Where do these numbers come from? They come from a melting point compilation (Tetko et al.; mined from patent text by program, amines drawn as free bases though some values may be those of a salt).
